System: RXF 393 renal
Test: NCI-60 one-dose screen, 48 h
Conditions: 10 µM unless noted
Compounds without any hit were thinned out: in the full panel of roughly 83,000, 20% have a hit. Activity calls are given as the source filed them. The calls were made as follows: active = growth percent below 10; inactive = the rest.
Could you please pick one outcome from this set? active, inactive

Solved cases below.
| compound | category_label |
| --- | --- |
| O=C(O)CC1CCN(c2ccc3nnc(Cl)n3n2)CC1 | inactive |
| COc1cc(C(=O)c2cc(C(C)=O)c3c(C)cccn23)cc(OC)c1OC | inactive |

Input line: Lab log entry: "CN1CCN(Cc2ccc(NC(=O)c3cncc(C#Cc4cnc5ccc(OCC6COC6)nn45)c3)cc2C(F)(F)F)CC1" — outcome as called in the assay?
Output line: active

Input line: Lab log entry: "CC[C@]12C=CCN3CC[C@@]4(c5ccc(OC)cc5N(C)[C@H]4[C@@](O)(C(=O)OC)[C@@H]1OC(=O)CCN1CCc4ccccc4C1)[C@@H]32" — outcome as called in the assay?
Output line: active

* * *

Tested on: NCI-H322M lung
Assay: NCI-60 one-dose screen, 48 h (100 = growth as untreated, 0 = no growth, -100 = all killed)
Details: 10 µM unless noted
Compounds without any hit were thinned out: in the full panel of roughly 83,000, 20% have a hit.
parameter_measured: growth (%)
Give bare numbers, in %.

Solved entries:
| sample_smiles | growth, % |
| --- | --- |
| N#Cc1c(-c2cccs2)cc(-c2cnccn2)nc1SCC(=O)N/N=C/c1ccccc1 | 63.5 |
| O=C(/C=C/c1cccc(F)c1)c1cccc(OCCCOc2cccc(C(=O)/C=C/c3cccc(F)c3)c2)c1 | 101 |
| CC(C)(C)OC(=O)Nc1ccc(-c2cccc(Oc3ccc4nnc(Cl)n4n3)c2)cc1 | 101 |
| O=C(CSc1nc2ccccc2c(=O)n1-c1ccc(Cl)c(Cl)c1)Nc1ccc(S(=O)(=O)Nc2ccc(Cl)nn2)cc1 | 91.7 |

Batch of 5 compounds: report growth for each.
1. COc1cc2cc(Oc3ccc(NC(=O)Nc4ccc(F)c(C(F)(F)F)c4)cc3)c(C)nc2cc1OCCN(C)C
2. COc1cccc(N2CCN(C3=C(Cl)C(=O)c4ncccc4C3=O)CC2)c1
3. CCNCCOc1ccc(/C(=C(/CC)c2ccc(Cl)cc2)c2ccc(OCCCN(C)C)cc2)cc1
4. C#Cc1nc(C(=O)NCCCCCCC(=O)NO)cs1
5. Cc1c(C(=O)/C=C/c2ccc(Cl)cc2)nnn1-c1ccc2oc(=O)ccc2c1

Output line:
1: 102; 2: 95.4; 3: -95.4; 4: 29.4; 5: 98.5

* * *

Test system: NCI-H23 lung
Assay: NCI-60 one-dose screen, 48 h
Conditions: 10 µM unless noted
Compounds without any hit were thinned out: in the full panel of roughly 83,000, 20% have a hit. Active and inactive are the calls of the source. Rule for the calls: active = growth percent below 10; inactive = the rest.
Could you please pick one outcome from this set? 1 (yes) (active), 0 (no) (inactive)

| compound | category_label |
| --- | --- |
| COc1ccc(/C=N\NC(=O)c2cnn(CC(O)c3ccccc3)c2N)cc1OCc1ccc(Cl)cc1 (centres undefined) | 0 (no) |

Input line: Lab log entry: "Cc1ccc(-c2cc3nc(C(Cl)Cl)nc(-c4ccc(S(=O)(=O)N(C)C)cc4)n3n2)cc1" — outcome as called in the assay?
Output line: 0 (no)

Input line: Lab log entry: "Clc1cccc(/C=N/Nc2nc(N/N=C/c3cccc(Cl)c3)nc(N3CCCCC3)n2)c1" — outcome as called in the assay?
Output line: 0 (no)

Input line: Lab log entry: "Cc1ccc(C(=O)CSc2nc3ccccc3c(=O)n2C)cc1" — outcome as called in the assay?
Output line: 0 (no)

Input line: Lab log entry: "C#C[C@]1(O)CC[C@H]2[C@@H]3CC=C4c5sc(Nc6ccc(C)cn6)nc5CC[C@]4(C)[C@H]3CC[C@@]21C" — outcome as called in the assay?
Output line: 1 (yes)

Input line: Lab log entry: CN1CC[C@@H]2[C@@]3(C)CC[C@H](O)C(C)(C)[C@@H]3CC[C@@]2(C)[C@]2(C)CC[C@@]3(CO)CCC(C)(C)C[C@@H]3C12 (some centres undefined) — outcome as called in the assay?
Output line: 0 (no)

Input line: Lab log entry: "O=C1Nc2cc(Cl)ccc2/C1=C\c1ccc(OCc2ccccc2)cc1" — outcome as called in the assay?
Output line: 0 (no)
